- assayed.system: A. oryzae laccase
- assay.overview: Laccase activity assay (L-DOPA substrate), A. oryzae
- Type: biochemical, Aspergillus oryzae
- measurement.context: Ki from IC50 by Cheng–Prusoff; 0.01% Triton X-100; listed as AMTD
property.label: Ki (µM)
Field: numeric (µM). Do not append units.

For the compound [NH4+].[NH4+].[SH-].[SH-].[S]=[Mo]=[S] [compound 28, ammonium tetrathiomolybdate (ATMD)] , what Ki is on record?
10

----------
- assayed.system: A. oryzae laccase
- assay.overview: Laccase activity assay (L-DOPA substrate), A. oryzae
- Format: biochemical, Aspergillus oryzae
- measurement.context: Ki from IC50 by Cheng–Prusoff; 0.01% Triton X-100; listed as dimercaptosuccinate
property.label: Ki (µM)
Field: numeric (µM). Do not append units.

For the compound O=C(O)C(S)C(S)C(=O)O (stereo not shown) [compound 19, dimercaptosuccinate] , what Ki is on record?
37

----------
- assayed.system: A. oryzae laccase
- assay.overview: Enzyme inhibitory kinetics, A. oryzae laccase
- Assay type: biochemical, Aspergillus oryzae
- measurement.context: read-out: ** Ki, simulated inhibitory constant by nonlinear fitting assuming competitive inhibition
property.label: pKi
// scale note: pKi = -log10(conc_M); give the bare number

For the compound C[C@H](CS)C(=O)N1CCC[C@H]1C(=O)O , what pKi is on record?
4.49

For the compound Nc1nc2nc[nH]c2c(=S)[nH]1 , what pKi is on record?
4.58

For the compound S=c1[nH]cnc2nc[nH]c12 , what pKi is on record?
4.76

For the compound O=C(O)C(S)C(S)C(=O)O (centres unmarked) [compound 19, dimercaptosuccinate] , what pKi is on record?
4.88

For the compound OCC(S)CS (centres unmarked) , what pKi is on record?
4.74

----------
Assign Ki to each entry below.
- assayed.system: ceruloplasmin (Homo sapiens)
- Sequence (P00450 20-1065): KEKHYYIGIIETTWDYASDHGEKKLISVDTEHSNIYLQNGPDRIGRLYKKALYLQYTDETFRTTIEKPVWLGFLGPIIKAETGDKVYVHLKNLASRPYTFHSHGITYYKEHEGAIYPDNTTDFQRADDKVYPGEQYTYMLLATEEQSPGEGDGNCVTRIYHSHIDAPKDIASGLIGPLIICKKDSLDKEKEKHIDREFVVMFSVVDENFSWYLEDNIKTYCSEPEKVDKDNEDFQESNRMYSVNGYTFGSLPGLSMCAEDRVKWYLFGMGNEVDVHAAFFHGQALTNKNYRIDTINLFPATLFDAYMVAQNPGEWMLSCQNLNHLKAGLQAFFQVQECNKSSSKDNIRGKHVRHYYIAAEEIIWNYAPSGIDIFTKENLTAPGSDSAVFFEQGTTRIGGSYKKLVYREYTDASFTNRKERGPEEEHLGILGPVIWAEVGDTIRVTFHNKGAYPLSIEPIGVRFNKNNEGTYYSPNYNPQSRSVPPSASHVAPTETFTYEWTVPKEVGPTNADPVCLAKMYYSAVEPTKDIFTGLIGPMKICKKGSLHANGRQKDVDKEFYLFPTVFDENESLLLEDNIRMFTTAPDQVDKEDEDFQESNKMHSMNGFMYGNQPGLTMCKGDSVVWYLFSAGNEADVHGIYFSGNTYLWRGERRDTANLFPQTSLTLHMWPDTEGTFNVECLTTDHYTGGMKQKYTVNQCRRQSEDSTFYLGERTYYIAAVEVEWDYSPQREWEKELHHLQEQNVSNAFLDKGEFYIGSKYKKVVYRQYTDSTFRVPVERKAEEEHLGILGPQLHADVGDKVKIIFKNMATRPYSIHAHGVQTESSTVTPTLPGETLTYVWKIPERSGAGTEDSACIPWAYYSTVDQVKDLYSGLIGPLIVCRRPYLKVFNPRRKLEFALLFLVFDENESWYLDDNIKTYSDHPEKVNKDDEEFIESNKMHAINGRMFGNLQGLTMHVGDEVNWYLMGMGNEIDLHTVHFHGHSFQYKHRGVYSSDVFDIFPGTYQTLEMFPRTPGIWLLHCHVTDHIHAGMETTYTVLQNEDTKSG
Field: numeric (µM). Do not append units.

// map [N-]=[N+]=[N-].[Na+] [compound 27, sodium azide] to recorded Ki (system: ceruloplasmin (Homo sapiens))
1.6

// map [NH4+].[NH4+].[SH-].[SH-].[S]=[Mo]=[S] [compound 28, ammonium tetrathiomolybdate (ATMD)] to recorded Ki (system: ceruloplasmin (Homo sapiens))
10.9

----------
- Tested on: laccases
- assay.overview: Enzyme inhibitory kinetics, laccases from both sources together
- Format: biochemical, T. versicolor and A. oryzae
- measurement.context: nonlinear fitting of enzyme kinetics
property.label: Mechanism of inhibition

Example compounds with recorded Mechanism of inhibition:
compound: S=c1[nH]cnc2nc[nH]c12
assayed.system: laccases
Mechanism of inhibition: Competitive

compound: Nc1nc2nc[nH]c2c(=S)[nH]1
assayed.system: laccases
Mechanism of inhibition: Competitive

compound: O=C(O)C(S)C(S)C(=O)O (centres unmarked) [compound 19, dimercaptosuccinate]
assayed.system: laccases
Mechanism of inhibition: Competitive

compound: C[C@H](CS)C(=O)N1CCC[C@H]1C(=O)O
assayed.system: laccases
Mechanism of inhibition: Competitive

Please examine the following record next.
// map OCC(S)CS (centres unmarked) to recorded Mechanism of inhibition (system: laccases)
Competitive

----------
- assayed.system: dopamine-β-hydroxylase (DBH) (Homo sapiens)
- Sequence (P09172 1-617): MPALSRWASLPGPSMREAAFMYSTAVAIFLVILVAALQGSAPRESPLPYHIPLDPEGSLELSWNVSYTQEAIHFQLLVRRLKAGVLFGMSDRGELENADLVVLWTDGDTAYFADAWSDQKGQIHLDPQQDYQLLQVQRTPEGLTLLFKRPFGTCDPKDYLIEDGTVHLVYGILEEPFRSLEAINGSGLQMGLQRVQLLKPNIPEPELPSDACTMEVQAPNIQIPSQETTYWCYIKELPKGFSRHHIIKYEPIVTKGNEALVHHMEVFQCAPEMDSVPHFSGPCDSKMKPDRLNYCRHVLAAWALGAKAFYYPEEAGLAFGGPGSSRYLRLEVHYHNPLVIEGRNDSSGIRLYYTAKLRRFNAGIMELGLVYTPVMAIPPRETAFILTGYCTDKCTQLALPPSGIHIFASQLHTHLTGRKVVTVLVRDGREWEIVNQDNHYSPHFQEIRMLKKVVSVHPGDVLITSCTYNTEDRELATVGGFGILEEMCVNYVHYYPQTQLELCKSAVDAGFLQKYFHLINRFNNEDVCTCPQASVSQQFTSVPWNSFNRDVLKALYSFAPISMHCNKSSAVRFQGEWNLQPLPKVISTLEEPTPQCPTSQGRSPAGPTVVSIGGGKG
Assign pKi to each entry below.
// scale note: pKi = -log10(conc_M); give the bare number

For the compound [NH4+].[NH4+].[SH-].[SH-].[S]=[Mo]=[S] [compound 28, ammonium tetrathiomolybdate (ATMD)] , what pKi is on record?
4.63

For the compound OCC(S)CS (stereo not shown) , what pKi is on record?
4.24

For the compound O=c1cccccc1O , what pKi is on record?
5.03

For the compound [N-]=[N+]=[N-].[Na+] [compound 27, sodium azide] , what pKi is on record?
4.15

----------
- assayed.system: A. oryzae laccase
- assay.overview: Laccase activity assay (L-DOPA substrate), A. oryzae
- Assay type: biochemical, Aspergillus oryzae
- measurement.context: Ki from IC50 by Cheng–Prusoff; 0.01% Triton X-100; listed as mercaptopurine
property.label: Ki (µM)
Field: numeric (µM). Do not append units.

For the compound S=c1[nH]cnc2nc[nH]c12 , what Ki is on record?
15

----------
Assign pKi to each entry below.
- assayed.system: A. oryzae laccase
- assay.overview: Laccase activity assay (L-DOPA substrate), A. oryzae
- Assay type: biochemical, Aspergillus oryzae
- measurement.context: Ki from IC50 by Cheng–Prusoff; 0.01% Triton X-100
// scale note: pKi = -log10(conc_M); give the bare number

For the molecule O=C(O)C(S)C(S)C(=O)O (stereo not shown) [compound 19, dimercaptosuccinate] , what pKi is on record?
4.43

For the molecule [NH4+].[NH4+].[SH-].[SH-].[S]=[Mo]=[S] [compound 28, ammonium tetrathiomolybdate (ATMD)] , what pKi is on record?
4.98

For the molecule C[C@H](CS)C(=O)N1CCC[C@H]1C(=O)O [compound 11, captopril] , what pKi is on record?
4.58

For the molecule OCC(S)CS (stereo not shown) [compound 18, dimercaptopropanol] , what pKi is on record?
4.73

For the molecule [N-]=[N+]=[N-].[Na+] [compound 27, sodium azide] , what pKi is on record?
5.51

For the molecule S=c1[nH]cnc2nc[nH]c12 [compound 1, mercaptopurine] , what pKi is on record?
4.82

For the molecule Nc1nc2nc[nH]c2c(=S)[nH]1 [compound 2, thioguanine] , what pKi is on record?
4.67
